Each recorded value in this set is attributed to patent US9809587B2.

Please go through the items and note down their mortality at 200 ppm.
Test system: Diabrotica balteata (Corn Root Worm)
EXPERIMENTAL_DETAILS: Diabrotica balteata (corn root worm), sprayed maize sprouts
Assay type: in vivo
EXPERIMENTAL_PARAMETERS: 96 h, application rate of 200 ppm, L2 larvae on maize sprouts, 4 days after infestation

mortality at 200 ppm recorded for this molecule, CCS(=O)(=O)c1cc(-c2ncc(C(F)(F)F)cn2)cnc1-c1nc2cc(C(F)(F)F)ncc2n1C , is ≥ 80%

mortality at 200 ppm recorded for this molecule, CCS(=O)(=O)c1cc(-n2cc(C(F)(F)F)cn2)cnc1-c1nc2cc(C(F)(F)F)ncc2n1C , is ≥ 80%

mortality at 200 ppm recorded for this molecule, CCS(=O)(=O)c1cc(-c2cc(OC)ccn2)cnc1-c1nc2cc(C(F)(F)F)ncc2n1C , is ≥ 80%

mortality at 200 ppm recorded for this molecule, CCS(=O)(=O)c1cc(-c2cnc3nc(C)ccn23)cnc1-c1nc2cc(C(F)(F)F)ncc2n1C , is ≥ 80%

mortality at 200 ppm recorded for this molecule, CCS(=O)(=O)c1cc(-c2ccnnc2)cnc1-c1nc2cc(C(F)(F)F)ncc2n1C , is ≥ 80%

mortality at 200 ppm recorded for this molecule, CCS(=O)(=O)c1cc(-c2ccc3[nH]c(=O)[nH]c3c2)cnc1-c1nc2cc(C(F)(F)F)ncc2n1C , is ≥ 80%

mortality at 200 ppm recorded for this molecule, CCS(=O)(=O)c1cc(-c2cccn3ncnc23)cnc1-c1nc2cc(C(F)(F)F)ncc2n1C , is ≥ 80%
